Item-by-item account of IC50
# Tested on: MCF7 (breast cancer cells)
# protocol details: In vitro cytotoxic activity, MTT assay, MCF7
# Assay type: cell-based, human
# condition: 24 h incubation with complex, mean ± standard deviation
property name: IC50 (µM)

NC(c1cccc2ccccc12)C(N)c1cccc2ccccc12.O.O.[Au+3].[Cl-].[Cl-].[Cl-] (centres unmarked) [Complex 1, [Au(npen)Cl2]Cl.2H2O]    11.8
N.N.[Cl][Pt][Cl] [Cisplatin, cisplatin, reference compound]    23.1
